Ref: paper PMC9693575

Assay: Solubility in water and phosphate buffers
Details: pH 5.4, 25 °C; AS = unmodified acid
From the text: This study aims to compare the influence of amino acid structure on the physicochemical properties of NSAID salts with the isopropyl ester of amino acids.
reported_endpoint: Solubility in Phosphate Buffer pH = 5.4, as active substance (gAS dm^−3)

{"columns": ["compound", "unit_info", "recorded_result"],
 "data": [
  ["CSCC[C@H](N)C(=O)OC(C)C.O=C(O)c1ccccc1O [[L-MetOiPr][SA], L-methionine isopropyl ester salicylate]", "gAS dm^−3", 4.437],
  ["CC[C@H](C)[C@H](N)C(=O)OC(C)C.O=C(O)c1ccccc1O [[L-IleOiPr][SA], L-isoleucine isopropyl ester salicylate]", "gAS dm^−3", 8.581],
  ["CC(C)OC(=O)[C@@H](N)[C@@H](C)O.O=C(O)c1ccccc1O [[L-ThrOiPr][SA], L-threonine isopropyl ester salicylate]", "gAS dm^−3", 13.978],
  ["CC(C)OC(=O)C(N)C(C)C.O=C(O)c1ccccc1O [[L-ValOiPr][SA]]", "gAS dm^−3", 5.259]
]}

* * *

Listing of recorded Inhibition diameter by entry.
Test system: Staphylococcus epidermidis
Assay: Disc diffusion antimicrobial susceptibility test, Staphylococcus epidermidis
Type: cell-based
Conditions: solution transferred to disc 800 mg cm^−3

{"columns": ["compound", "Inhibition diameter [mm]"],
 "data": [
  ["CC(C)Cc1ccc(C(C)C(=O)O)cc1.CC(C)OC(=O)[C@@H](N)[C@@H](C)O [[L-ThrOiPr][IBU], L-threonine isopropyl ester ibuprofenate]", 19.8],
  ["CC(C)Cc1ccc(C(C)C(=O)O)cc1.CCC(C)C(N)C(=O)OC(C)C (mixture of isomers) [[L-IleOiPr][IBU]]", 18.0],
  ["CC(C)Cc1ccc(C(C)C(=O)O)cc1.CC(C)OC(=O)C(N)C(C)C (mixture of isomers) [[L-ValOiPr][IBU]]", 18.4],
  ["CC(C(=O)O)c1cccc(C(=O)c2ccccc2)c1.CC[C@H](C)[C@H](N)C(=O)OC(C)C [[L-IleOiPr][KETO]]", 8.3],
  ["CC(C(=O)O)c1cccc(C(=O)c2ccccc2)c1.CC(C)OC(=O)C(N)C(C)C (mixture of isomers) [[L-ValOiPr][KETO]]", 6.3],
  ["CC(C)Cc1ccc(C(C)C(=O)O)cc1.CSCCC(N)C(=O)OC(C)C (mixture of isomers) [[L-MetOiPr][IBU]]", 17.0],
  ["CC(C)OC(=O)[C@@H](N)C(C)C.COc1ccc2cc([C@H](C)C(=O)O)ccc2c1 [[L-ValOiPr][NAP]]", 6.6],
  ["CC[C@H](C)[C@H](N)C(=O)OC(C)C.COc1ccc2cc([C@H](C)C(=O)O)ccc2c1 [[L-IleOiPr][NAP], L-isoleucine isopropyl ester naproxenate]", 12.4]
]}

* * *

Test system: Micrococcus Luteus
Experiment: Disc diffusion antimicrobial susceptibility test, Micrococcus luteus
Type: cell-based
Conditions: solution transferred to disc 800 mg cm^−3

{"columns": ["compound", "target_system", "Inhibition diameter (mm)"],
 "data": [
  ["COc1ccc2cc([C@H](C)C(=O)O)ccc2c1.CSCC[C@H](N)C(=O)OC(C)C [[L-MetOiPr][NAP], L-methionine isopropyl ester naproxenate]", "Micrococcus Luteus", 7.5],
  ["CC[C@H](C)[C@H](N)C(=O)OC(C)C.COc1ccc2cc([C@H](C)C(=O)O)ccc2c1 [[L-IleOiPr][NAP], L-isoleucine isopropyl ester naproxenate]", "Micrococcus Luteus", 8.7],
  ["CC(C)OC(=O)[C@@H](N)[C@@H](C)O.COc1ccc2cc([C@H](C)C(=O)O)ccc2c1 [[L-ThrOiPr][NAP], L-threonine isopropyl ester naproxenate]", "Micrococcus Luteus", 9.6],
  ["CC(C(=O)O)c1cccc(C(=O)c2ccccc2)c1.CSCCC(N)C(=O)OC(C)C (mixture of isomers) [[L-MetOiPr][KETO]]", "Micrococcus Luteus", 12.4],
  ["CC(C(=O)O)c1cccc(C(=O)c2ccccc2)c1.CC[C@H](C)[C@H](N)C(=O)OC(C)C [[L-IleOiPr][KETO]]", "Micrococcus Luteus", 8.4],
  ["CC(C)Cc1ccc(C(C)C(=O)O)cc1.CSCCC(N)C(=O)OC(C)C (mixture of isomers) [[L-MetOiPr][IBU]]", "Micrococcus Luteus", 14.3],
  ["CC(C)Cc1ccc(C(C)C(=O)O)cc1.CC(C)OC(=O)C(N)C(C)C (mixture of isomers) [[L-ValOiPr][IBU]]", "Micrococcus Luteus", 12.6],
  ["CC(C(=O)O)c1cccc(C(=O)c2ccccc2)c1.CC(C)OC(=O)C(N)C(C)O (mixture of isomers) [[L-ThrOiPr][KETO]]", "Micrococcus Luteus", 15.4],
  ["CC(C)OC(=O)[C@@H](N)C(C)C.COc1ccc2cc([C@H](C)C(=O)O)ccc2c1 [[L-ValOiPr][NAP]]", "Micrococcus Luteus", 8.2],
  ["CC(C)Cc1ccc(C(C)C(=O)O)cc1.CCC(C)C(N)C(=O)OC(C)C (mixture of isomers) [[L-IleOiPr][IBU]]", "Micrococcus Luteus", 11.6],
  ["CC(C)Cc1ccc(C(C)C(=O)O)cc1.CC(C)OC(=O)[C@@H](N)[C@@H](C)O [[L-ThrOiPr][IBU], L-threonine isopropyl ester ibuprofenate]", "Micrococcus Luteus", 18.2]
]}

* * *

System: Escherichia coli
Assay: Disc diffusion antimicrobial susceptibility test, Escherichia coli
Type: cell-based
Set-up: key: -: no growth of the organism
Settings: solution transferred to disc 600 mg cm^−3

{"columns": ["compound", "target_system", "Inhibition diameter"],
 "data": [
  ["CC(C(=O)O)c1cccc(C(=O)c2ccccc2)c1 (racemic) [KETO, (R,S)-ketoprofen, reference compound]", "Escherichia coli", "-"],
  ["CC[C@H](C)[C@H](N)C(=O)OC(C)C.COc1ccc2cc([C@H](C)C(=O)O)ccc2c1 [[L-IleOiPr][NAP], L-isoleucine isopropyl ester naproxenate]", "Escherichia coli", "-"],
  ["COc1ccc2cc([C@H](C)C(=O)O)ccc2c1 [NAP, S-(+)-naproxen, reference compound]", "Escherichia coli", "-"]
]}

* * *

System: Staphylococcus epidermidis
Experiment: Disc diffusion antimicrobial susceptibility test, Staphylococcus epidermidis
Type: cell-based
Design: key: -: no growth of the organism
Conditions: solution transferred to disc 200 mg cm^−3
reported_endpoint: Inhibition diameter

{"columns": ["molecule", "target_system", "reported_endpoint", "recorded_result"],
 "data": [
  ["COc1ccc2cc([C@H](C)C(=O)O)ccc2c1.CSCC[C@H](N)C(=O)OC(C)C [[L-MetOiPr][NAP], L-methionine isopropyl ester naproxenate]", "Staphylococcus epidermidis", "Inhibition diameter", "-"],
  ["CC(C)OC(=O)[C@@H](N)C(C)C.COc1ccc2cc([C@H](C)C(=O)O)ccc2c1 [[L-ValOiPr][NAP]]", "Staphylococcus epidermidis", "Inhibition diameter", "-"],
  ["CC[C@H](C)[C@H](N)C(=O)OC(C)C.COc1ccc2cc([C@H](C)C(=O)O)ccc2c1 [[L-IleOiPr][NAP], L-isoleucine isopropyl ester naproxenate]", "Staphylococcus epidermidis", "Inhibition diameter", "-"],
  ["CC(C(=O)O)c1cccc(C(=O)c2ccccc2)c1.CC(C)OC(=O)C(N)C(C)C (mixture of isomers) [[L-ValOiPr][KETO]]", "Staphylococcus epidermidis", "Inhibition diameter", "-"],
  ["CC(C)OC(=O)[C@@H](N)[C@@H](C)O.O=C(O)c1ccccc1O [[L-ThrOiPr][SA], L-threonine isopropyl ester salicylate]", "Staphylococcus epidermidis", "Inhibition diameter", "-"],
  ["CC(C)OC(=O)[C@@H](N)[C@@H](C)O.COc1ccc2cc([C@H](C)C(=O)O)ccc2c1 [[L-ThrOiPr][NAP], L-threonine isopropyl ester naproxenate]", "Staphylococcus epidermidis", "Inhibition diameter", "-"],
  ["CC(C)Cc1ccc(C(C)C(=O)O)cc1.CSCCC(N)C(=O)OC(C)C (mixture of isomers) [[L-MetOiPr][IBU]]", "Staphylococcus epidermidis", "Inhibition diameter", "13.6 ± 0.2 mm"],
  ["CC(C)OC(=O)C(N)C(C)C.O=C(O)c1ccccc1O [[L-ValOiPr][SA]]", "Staphylococcus epidermidis", "Inhibition diameter", "-"],
  ["COc1ccc2cc([C@H](C)C(=O)O)ccc2c1 [NAP, S-(+)-naproxen, reference compound]", "Staphylococcus epidermidis", "Inhibition diameter", "-"],
  ["O=C(O)c1ccccc1O [SA, salicylic acid, reference compound]", "Staphylococcus epidermidis", "Inhibition diameter", "-"],
  ["CC[C@H](C)[C@H](N)C(=O)OC(C)C.O=C(O)c1ccccc1O [[L-IleOiPr][SA], L-isoleucine isopropyl ester salicylate]", "Staphylococcus epidermidis", "Inhibition diameter", "-"],
  ["CC(C(=O)O)c1cccc(C(=O)c2ccccc2)c1.CC[C@H](C)[C@H](N)C(=O)OC(C)C [[L-IleOiPr][KETO]]", "Staphylococcus epidermidis", "Inhibition diameter", "-"],
  ["CC(C)Cc1ccc(C(C)C(=O)O)cc1.CC(C)OC(=O)[C@@H](N)[C@@H](C)O [[L-ThrOiPr][IBU], L-threonine isopropyl ester ibuprofenate]", "Staphylococcus epidermidis", "Inhibition diameter", "16.9 ± 0.2 mm"],
  ["CC(C(=O)O)c1cccc(C(=O)c2ccccc2)c1 (racemic) [KETO, (R,S)-ketoprofen, reference compound]", "Staphylococcus epidermidis", "Inhibition diameter", "-"],
  ["CC(C(=O)O)c1cccc(C(=O)c2ccccc2)c1.CSCCC(N)C(=O)OC(C)C (mixture of isomers) [[L-MetOiPr][KETO]]", "Staphylococcus epidermidis", "Inhibition diameter", "-"],
  ["CC(C)Cc1ccc(C(C)C(=O)O)cc1.CCC(C)C(N)C(=O)OC(C)C (mixture of isomers) [[L-IleOiPr][IBU]]", "Staphylococcus epidermidis", "Inhibition diameter", "15.4 ± 0.4 mm"],
  ["CC(C(=O)O)c1cccc(C(=O)c2ccccc2)c1.CC(C)OC(=O)C(N)C(C)O (mixture of isomers) [[L-ThrOiPr][KETO]]", "Staphylococcus epidermidis", "Inhibition diameter", "-"],
  ["CC(C)Cc1ccc(C(C)C(=O)O)cc1.CC(C)OC(=O)C(N)C(C)C (mixture of isomers) [[L-ValOiPr][IBU]]", "Staphylococcus epidermidis", "Inhibition diameter", "13.2 ± 0.2 mm"]
]}
